Data credit: patent US4072574A

Tested on: AMV DNA polymerase
Experiment Notes: Fidelity of in vitro DNA synthesis (error frequency) with AMV DNA polymerase copying synthetic polynucleotide templates
Condition Label: Table 1; template poly (C).oligo (dG); classes 1-3 not defined
Give measured Class for each item. Keep answers brief.

Worked cases, Class given:
[Cl][Cd][Cl] [CdCl2]    1
CC(=O)[O-].[K+] [KC2 H2 O2]    3
N.N.O=S(=O)(O)O [(NH4)2 SO4]    2
[Cl][Mn][Cl] [MnCl2]    1
O=S(=O)([O-])[O-].[Mg+2] [MgSO4]    3
[Cl][Fe][Cl] [FeCl2]    2
CC(=O)[O-].CC(=O)[O-].[Cd+2] [Cd(C2 H3 O2)2]    1
CC(=O)[O-].CC(=O)[O-].[Cu+2] [Cu(C2 H3 O2)2]    1
[Cl][Ni][Cl] [NiCl2]    1
[Cl-].[Cl-].[Co+2] [CoCl2]    1

Hi, could you look up Class for each item in my list?
1. [Cl][Pb][Cl] [PbCl2]
2. CC(=O)O [NaC2 H3 O2]
3. [Cl][Cu][Cl] [CuCl2]

RESULT:
[1, 2, 1]

----------
Test system: AMV DNA polymerase
Experiment Notes: Fidelity of in vitro DNA synthesis (error frequency) with AMV DNA polymerase copying synthetic polynucleotide templates
Condition Label: Table 2; classes not defined
Outcome Measure: Class
Answers are plain numbers.

Hi, could you look up Class for each item in my list?
1. CC(=O)O
2. O=P([O-])([O-])O.[K+].[K+]
3. O=S(=O)([O-])[O-].[Mg+2]
4. CC(=O)[O-].[K+]

RESULT:
1: 2; 2: 2; 3: 3; 4: 3

----------
System: AMV DNA polymerase
Experiment Notes: Fidelity of in vitro DNA synthesis (error frequency) with AMV DNA polymerase copying synthetic polynucleotide templates
Condition Label: template poly (A).oligo (dT)
Outcome Measure: Metal Concentration which yielded the largest observed change in error rate (mM)
Answers are plain numbers, in mM.

[Cl-].[Cl-].[Sr+2]    10
[Ba+2].[Cl-].[Cl-]    10
[Ca+2].[Cl-].[Cl-]    5

We next turn to a different compound, shown below.
QUERY: Reported Metal Concentration which yielded the largest observed change in error rate for [Be+2].[Cl-].[Cl-] [BeCl2, beryllium chloride] : what is it?
RESULT: 10

----------
Test system: AMV DNA polymerase
Experiment Notes: Fidelity of in vitro DNA synthesis (error frequency) with AMV DNA polymerase copying synthetic polynucleotide templates
Condition Label: various templates
Outcome Measure: effect on the fidelity of DNA synthesis (in words)

[Cl-].[Cl-].[Co+2] [CoCl2]    alter the fidelity
[Cl][Ni][Cl] [NiCl2]    alter the fidelity
[Cl][Mn][Cl] [MnCl2]    alter the fidelity

----------
Give measured Class for each item. Keep answers brief.
Test system: AMV DNA polymerase
Experiment Notes: Fidelity of in vitro DNA synthesis (error frequency) with AMV DNA polymerase copying synthetic polynucleotide templates
Condition Label: Table 1; template poly (A).oligo (dT); classes 1-3 not defined
Numbers only.

Worked cases, Class given:
[Ca+2].[Cl-].[Cl-]    2
[Be+2].[Cl-].[Cl-] [BeCl2, beryllium chloride]    1
[Cl-].[Cl-].[Sr+2]    3

We next turn to a different molecule, shown below.
QUERY: Reported Class for `[Ba+2].[Cl-].[Cl-]` : what is it?
RESULT: 2

----------
Test system: AMV DNA polymerase
Experiment Notes: Fidelity of in vitro DNA synthesis (error frequency) with AMV DNA polymerase copying synthetic polynucleotide templates
Condition Label: template poly (C).oligo (dG)
Threshold 4 mM: Metal Concentration which yielded the largest observed change in error rate strictly smaller gives rule met, otherwise rule not met.

// below: answered molecules
O=S(=O)([O-])[O-].[Mg+2]    rule not met
CC(=O)[O-].[K+]    rule not met
[Cl][Cu][Cl]    rule met
N.N.O=S(=O)(O)O    rule not met
CC(=O)[O-].CC(=O)[O-].[Cu+2]    rule met

QUERY: Strictly below 4 mM in Metal Concentration which yielded the largest observed change in error rate? `[Cl][Mn][Cl]`
RESULT: rule not met

QUERY: Strictly below 4 mM in Metal Concentration which yielded the largest observed change in error rate? `[Cl][Cd][Cl]`
RESULT: rule met

QUERY: Strictly below 4 mM in Metal Concentration which yielded the largest observed change in error rate? `[Cl][Ni][Cl]`
RESULT: rule not met

QUERY: Strictly below 4 mM in Metal Concentration which yielded the largest observed change in error rate? `CC(=O)[O-].CC(=O)[O-].[Cd+2]`
RESULT: rule met

QUERY: Strictly below 4 mM in Metal Concentration which yielded the largest observed change in error rate? `CC(=O)O`
RESULT: rule not met

----------
Experiment Notes: Fidelity of in vitro DNA synthesis (error frequency) with AMV DNA polymerase copying synthetic polynucleotide templates
Condition Label: amv dna polymerase, poly [d(a-t)]
Give measured fold induction at 1 h for each item. Keep answers brief.
One number for each entry.

CC(=O)O    0.94
O=C(O)O    0.96

We next turn to a different compound, shown below.
QUERY: Reported fold induction at 1 h for `O=CO` : what is it?
RESULT: 0.83

----------
System: AMV DNA polymerase
Experiment Notes: Fidelity of in vitro DNA synthesis (error frequency) with AMV DNA polymerase copying synthetic polynucleotide templates
Condition Label: Table 1; template poly [d(A-T)]; classes 1-3 not defined
Give measured Class for each item. Keep answers brief.
Give bare numbers.

Worked cases, Class given:
O=P([O-])(O)O.[K+]    2
[Na+].[OH-]    3
O=CO    2
[Cl-].[Cl-].[Zn+2]    2
[Cl-].[Rb+]    2
[O]=[Cr](=[O])=[O]    1
[Cl-].[K+] [KCl, potassium chloride]    2
[Cl][Cr][Cl]    1

Hi, could you look up Class for each item in my list?
1. [Cl-].[Na+]
2. O=P([O-])([O-])O.[K+].[K+]
3. O=S(=O)([O-])[O-].O=S(=O)([O-])[O-].O=S(=O)([O-])[O-].[Al+3].[Al+3] [(Al)2 (SO4)3]
4. O=C(O)O
5. O=[N+]([O-])[O-].[Ag+]
6. CC(=O)O

RESULT:
2
2
2
2
1
2

----------
Experiment Notes: Fidelity of in vitro DNA synthesis (error frequency) with AMV DNA polymerase copying synthetic polynucleotide templates
Condition Label: amv dna polymerase, poly(c).oligo(dg)
Outcome Measure: fold induction at 1 h

QUERY: Reported fold induction at 1 h for `CC(=O)O` : what is it?
RESULT: 1

----------
Give measured Metal Concentration which yielded the largest observed change in error rate for each item. Keep answers brief.
Tested on: AMV DNA polymerase
Experiment Notes: Fidelity of in vitro DNA synthesis (error frequency) with AMV DNA polymerase copying synthetic polynucleotide templates
Condition Label: template poly [d(A-T)]
Output should be the measured figure followed by the unit it is expressed in.

Worked cases, Metal Concentration which yielded the largest observed change in error rate given:
[Cl-].[Cl-].[Zn+2]    0.4 mM
[Cl][Cr][Cl]    0.64 mM
O=CO    100 mM
O=C(O)O    40 mM
O=S(=O)([O-])[O-].O=S(=O)([O-])[O-].O=S(=O)([O-])[O-].[Al+3].[Al+3] [(Al)2 (SO4)3]    10 mM

Hi, could you look up Metal Concentration which yielded the largest observed change in error rate for each item in my list?
1. [Cl-].[Rb+]
2. [Na+].[OH-]

RESULT:
20 mM
10 mM

Hi, could you look up Metal Concentration which yielded the largest observed change in error rate for each item in my list?
1. O=[N+]([O-])[O-].[Ag+]
2. [O]=[Cr](=[O])=[O]
3. O=P([O-])([O-])O.[K+].[K+]
4. [Cl-].[Na+]
5. O=P([O-])(O)O.[K+]
6. [Cl-].[K+] [KCl, potassium chloride]
7. CC(=O)O

RESULT:
1: 0.03 mM; 2: 16 mM; 3: 40 mM; 4: 120 mM; 5: 80 mM; 6: 150 mM; 7: 10 mM

----------
Test system: AMV DNA polymerase
Experiment Notes: Fidelity of in vitro DNA synthesis (error frequency) with AMV DNA polymerase copying synthetic polynucleotide templates
Condition Label: template poly (C).oligo (dG)
Outcome Measure: Metal Concentration which yielded the largest observed change in error rate (mM)
Give bare numbers, in mM.

Worked cases, Metal Concentration which yielded the largest observed change in error rate given:
[Cl][Pb][Cl]    4
[Cl-].[Cl-].[Co+2]    4

We next turn to a different molecule, shown below.
QUERY: Reported Metal Concentration which yielded the largest observed change in error rate for `[Cl][Fe][Cl]` : what is it?
RESULT: 4
